# assay.system: T1, recombinant human NKp30 extracellular domain, his-tagged (human, UniProt O14931 19-135)
# T1 construct: BLI used human NKp30 bought from Abcam (his-tagged ECD); also called rh NKp30 ECD; human NKp30 (Abcam); not shown: his tag
# T1 sequence: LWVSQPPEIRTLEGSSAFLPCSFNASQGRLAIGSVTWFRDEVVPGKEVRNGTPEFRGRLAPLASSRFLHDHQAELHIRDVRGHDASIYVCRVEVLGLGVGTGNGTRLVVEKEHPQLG
# run.description: BLI as in Example 1
result.type: pKd
Formally, pKd is defined as -log10 of the concentration c, with c in mol/L.

Record request: pKd value, item VHH2.7 (humanized) (VHH, expressed and measured by BLI 'as described in Experiment 1' (there: bispecific SEEDbody on anti-human Fc sensors)) VHH: EVQLVESGGGVVQPGGSLRLSCAVSGQTWTNYHIGWFRQAPGKGLESVASIEWGGRGTYATDSVKGRFTISRDNAKNTLYLQMNSLRAEDTAVYYCAAQSSSRSPLESNYDYWGQGTLVTVSS
8.01

Further, for VHH2.3 (humanized) (VHH, expressed and measured by BLI 'as described in Experiment 1' (there: bispecific SEEDbody on anti-human Fc sensors)) VHH: EVQLVESGGGVVQPGGSLRLSCAVSGQTWTNYHIGWFRQAPGKARESVASIEWGGRGTYATDSVKGRFTISRDNAKNTLYLQMNSLRAEDTAVYYCAAQSSSRSPLESNYDYWGQGTLVTVSS ?
8.00

Further, for VHH2.5 (humanized) (VHH, expressed and measured by BLI 'as described in Experiment 1' (there: bispecific SEEDbody on anti-human Fc sensors)) VHH: EVQLVESGGGVVQPGGSLRLSCAVSGQTWTNYHIGWFRQAPGKGLESVASIEWGGRGTYATDSVKGRFTISRDNAKNTVYLQMNSLRAEDTAVYYCAAQSSSRSPLESNYDYWGQGTLVTVSS ?
8.53

Lab note: next binder to report on.
Record request: pKd value, item VHH2.6 (humanized) (VHH, expressed and measured by BLI 'as described in Experiment 1' (there: bispecific SEEDbody on anti-human Fc sensors)) VHH: EVQLVESGGGVVQPGGSLRLSCAVSGQTWTNYHIGWVRQAPGKGLESVASIEWGGRGTYATDSVKGRFTISRDNAKNTVYLQMNSLRAEDTAVYYCAAQSSSRSPLESNYDYWGQGTLVTVSS
7.56
